Biological target: FGFR3 (UniProt P22607)
Sequence (P22607 whole entry, looked up): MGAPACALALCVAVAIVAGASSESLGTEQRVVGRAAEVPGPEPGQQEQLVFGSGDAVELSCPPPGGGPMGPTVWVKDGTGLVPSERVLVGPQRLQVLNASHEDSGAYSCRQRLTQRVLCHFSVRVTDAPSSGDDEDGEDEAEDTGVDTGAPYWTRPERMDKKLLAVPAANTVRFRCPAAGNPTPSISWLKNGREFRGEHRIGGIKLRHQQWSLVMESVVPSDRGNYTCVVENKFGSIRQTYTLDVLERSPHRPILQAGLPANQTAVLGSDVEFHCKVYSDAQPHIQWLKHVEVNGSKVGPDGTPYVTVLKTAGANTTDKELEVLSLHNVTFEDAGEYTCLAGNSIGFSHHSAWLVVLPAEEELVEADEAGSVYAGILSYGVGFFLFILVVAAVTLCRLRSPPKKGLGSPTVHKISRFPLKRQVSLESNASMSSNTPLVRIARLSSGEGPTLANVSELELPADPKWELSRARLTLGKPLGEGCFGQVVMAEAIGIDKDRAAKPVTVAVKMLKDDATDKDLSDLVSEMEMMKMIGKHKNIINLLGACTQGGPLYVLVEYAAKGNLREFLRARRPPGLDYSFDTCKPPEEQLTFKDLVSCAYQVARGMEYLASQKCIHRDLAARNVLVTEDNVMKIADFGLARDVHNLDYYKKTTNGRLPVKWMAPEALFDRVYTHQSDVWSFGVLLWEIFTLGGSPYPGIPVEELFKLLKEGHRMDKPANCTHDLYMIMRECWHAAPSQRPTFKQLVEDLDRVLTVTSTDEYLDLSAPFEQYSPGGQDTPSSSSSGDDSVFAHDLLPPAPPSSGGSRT
Test: phosphorylation enrichment, bacterial display (enrichment ratio); higher = better substrate or ligand; peptides without Tyr show the background
Classification field: y = phosphorylation enrichment at or over 0.8; n = phosphorylation enrichment under 0.8.

>>> discrete_label("RKQQLYTAMEE [CCDC39_Y593]")
"n"
>>> discrete_label("HDEPTYARSSK [PEAK1_Y616]")
"n"
>>> discrete_label("PLDVEYFTLQI [TP53_Y327_G325V]")
"y"
>>> discrete_label("TDTQLYGRFGS [ITGA2B_Y384_G380D]")
"n"
>>> discrete_label("SRASYYRKGGC [ALK_Y1283_Y1278S]")
"n"
>>> discrete_label("KRISCYEARYQ [PFKFB3_Y194_S197R]")
"n"
>>> discrete_label("HAVEDYQAIVD [CCT7_Y263_T259A]")
"y"
>>> discrete_label("KLQKKYGPIYS [CYP17A1_Y60]")
"n"
>>> discrete_label("IENKLYGMSDP [RET_Y1062]")
"n"
>>> discrete_label("SEPDLYCDPRG [PKP1_Y160]")
"y"
>>> discrete_label("SHNKFYMLVAR [MFSD8_Y134_YF]")
"y"
>>> discrete_label("RLNCIYFKDQT [RS1_Y165_W163C_YF]")
"n"
>>> discrete_label("IFLGAYDRFLP [SLC22A5_Y486_V481I_YF]")
"n"

---

Target: EPHB2 (UniProt P29323)
Sequence (P29323 whole entry, looked up): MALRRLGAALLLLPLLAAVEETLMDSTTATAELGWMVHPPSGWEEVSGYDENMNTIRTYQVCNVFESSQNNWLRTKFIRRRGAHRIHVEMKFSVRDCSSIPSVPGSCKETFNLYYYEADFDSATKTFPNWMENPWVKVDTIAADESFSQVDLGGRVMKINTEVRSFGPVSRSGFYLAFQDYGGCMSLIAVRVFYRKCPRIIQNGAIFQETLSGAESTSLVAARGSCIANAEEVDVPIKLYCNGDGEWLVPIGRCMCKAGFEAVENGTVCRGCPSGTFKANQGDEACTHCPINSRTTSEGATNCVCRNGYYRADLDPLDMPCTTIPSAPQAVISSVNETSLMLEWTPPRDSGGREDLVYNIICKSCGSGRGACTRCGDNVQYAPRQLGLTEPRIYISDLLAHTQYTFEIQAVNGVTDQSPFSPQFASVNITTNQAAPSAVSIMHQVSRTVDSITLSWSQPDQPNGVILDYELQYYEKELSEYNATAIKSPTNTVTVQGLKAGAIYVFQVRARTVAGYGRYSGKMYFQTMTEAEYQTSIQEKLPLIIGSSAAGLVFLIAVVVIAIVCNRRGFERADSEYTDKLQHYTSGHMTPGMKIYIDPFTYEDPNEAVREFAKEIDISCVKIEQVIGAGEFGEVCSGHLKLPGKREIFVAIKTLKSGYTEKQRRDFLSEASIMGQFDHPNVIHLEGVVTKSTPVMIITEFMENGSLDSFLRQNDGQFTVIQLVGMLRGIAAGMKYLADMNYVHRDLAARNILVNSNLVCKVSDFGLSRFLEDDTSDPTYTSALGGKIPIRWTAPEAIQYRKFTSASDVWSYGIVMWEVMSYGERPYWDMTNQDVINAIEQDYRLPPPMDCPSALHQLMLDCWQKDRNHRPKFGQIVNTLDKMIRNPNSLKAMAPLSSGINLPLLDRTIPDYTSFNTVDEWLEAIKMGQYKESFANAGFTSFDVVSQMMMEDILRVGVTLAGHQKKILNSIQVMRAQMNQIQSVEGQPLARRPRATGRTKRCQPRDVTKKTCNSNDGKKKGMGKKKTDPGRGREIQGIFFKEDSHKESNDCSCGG
Assay: phosphorylation enrichment, bacterial display (enrichment ratio); higher = better substrate or ligand; peptides without Tyr show the background
metric: phosphorylation enrichment

>>> result("QFFQGYFNNNF [ZNF236_Y644_S643G]")
0.496
>>> result("LARDMHDKEYY [MET_Y1230_Y1230H]")
0.507
>>> result("GSETPYVDRTP [ESS2_Y335]")
0.477
>>> result("RMLREYQELMS [KRT74_Y425]")
0.432
>>> result("TMETKYDNISR [SETDB2_Y477_V473M]")
0.424
>>> result("DLTQDSEEWKR [ORC6_Y232_Y232S]")
0.576
>>> result("PPTFRYERGSR [INPPL1_Y663_YF]")
0.579

---

Documented phosphorylation enrichment across a set of sequences
Biological target: FGFR3 (UniProt P22607)
Assay: phosphorylation enrichment, bacterial display (enrichment ratio); higher = better substrate or ligand; peptides without Tyr show the background
metric: phosphorylation enrichment

>>> readout_number("CTTIHQNYMCN [TP53_Y234_Y234Q]")
0.56
>>> readout_number("TFHNTYHSHMR [IL1RAPL1_Y615_Q618H]")
0.424
>>> readout_number("FADIAYNFRRG [PAH_Y166_H170R_YF]")
0.539
>>> readout_number("KKGIVYVFNGR [ITGAV_Y404_I405V]")
0.538
>>> readout_number("QGLMPYGQPRP [SRRT_Y798]")
0.527
>>> readout_number("SLGSPYEQPPR [PDLIM4_Y137_G138E]")
0.565
>>> readout_number("VMVCAYLLHRG [PTEN_Y138_I135V]")
0.78
>>> readout_number("FASALYRQRRS [FGF11_Y162_YF]")
0.531
>>> readout_number("VDGFVYKLHPS [GCK_Y413_S411F]")
0.55
>>> readout_number("HEKKAYSFCGT [RPS6KA3_Y226]")
1.68
>>> readout_number("VGGRIYTDDGL [PKLR_Y218_I219T]")
0.612
>>> readout_number("LENSTYQFIHV [CRB1_Y760_R764H_YF]")
4.82
>>> readout_number("REVPVYTYSEP [FAM120B_Y368_D370Y]")
1.81

---

Target: Fyn (UniProt P06241)
Sequence (P06241 whole entry, looked up): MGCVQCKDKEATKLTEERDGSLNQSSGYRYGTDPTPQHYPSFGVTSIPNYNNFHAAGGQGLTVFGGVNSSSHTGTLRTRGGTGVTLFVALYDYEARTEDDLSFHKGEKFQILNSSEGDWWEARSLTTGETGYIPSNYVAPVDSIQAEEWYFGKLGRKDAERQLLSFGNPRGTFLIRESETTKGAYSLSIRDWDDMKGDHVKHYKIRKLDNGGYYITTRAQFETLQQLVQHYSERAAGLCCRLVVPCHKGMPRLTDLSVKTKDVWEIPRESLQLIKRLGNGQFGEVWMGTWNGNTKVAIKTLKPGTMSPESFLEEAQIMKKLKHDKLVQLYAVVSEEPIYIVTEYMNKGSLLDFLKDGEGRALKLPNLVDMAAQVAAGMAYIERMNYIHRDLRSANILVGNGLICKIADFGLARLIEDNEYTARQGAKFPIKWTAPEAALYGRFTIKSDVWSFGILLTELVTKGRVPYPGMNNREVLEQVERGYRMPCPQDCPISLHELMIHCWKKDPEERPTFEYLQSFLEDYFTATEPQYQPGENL
Test: phosphorylation enrichment, bacterial display (enrichment ratio); higher = better substrate or ligand; peptides without Tyr show the background
Classification field: 1 = phosphorylation enrichment at or over 0.5; 0 = phosphorylation enrichment under 0.5.

>>> discrete_label("GVYSRYFTTYD [CLCA1_Y661]")
1
>>> discrete_label("GISDEYHVIWH [GCDH_Y398_R402W]")
1
>>> discrete_label("NNFGNYNNQSS [HNRNPA1_Y318_D314N]")
0
>>> discrete_label("GQKTLYSFFSP [UNG_Y8]")
1
>>> discrete_label("PLYRKYWPNHI [GREB1L_Y1560]")
1
>>> discrete_label("GLSDLYVKIHL [SYT2_Y309_P308L]")
1
>>> discrete_label("GHRPVYSEDEQ [CHST6_Y362_Y358H]")
0
>>> discrete_label("RRVLVYGGRGA [QDPR_Y16]")
1
>>> discrete_label("DGSALYTGSAL [COL6A3_Y524]")
1
>>> discrete_label("AQPHTYEEPGR [EPHA8_Y616_E612Q]")
0
>>> discrete_label("VRFMAYTDEIF [F8_Y450_T454I]")
0
>>> discrete_label("IRKDLYSNNVL [ACTC1_Y296_A297S]")
0
>>> discrete_label("LVMFTYAIFGM [SCN1A_Y1684_I1683T]")
1
>>> discrete_label("YFCRWYRNRKS [EREG_Y144]")
1
>>> discrete_label("TYGVVYKARNK [CDK2_Y19]")
1
>>> discrete_label("CRAVKYLQMVR [AVPR2_Y117_G122R]")
0
>>> discrete_label("TIWDSYTTNKV [GNB1_Y85_I80T]")
0
>>> discrete_label("EQLQSYQVEII [KRT33A_Y268_A270V]")
1
>>> discrete_label("LNLKDYNLVGG [GNAQ_Y356_E355D]")
0
>>> discrete_label("KANEYYPVVLI [ADAMTS18_Y765]")
1
>>> discrete_label("RMLREYQELMS [KRT74_Y425]")
1
>>> discrete_label("SSVKPYRVFCD [FGB_Y266_YF]")
0
>>> discrete_label("SSNLFYRCLTA [CNGA3_Y169_W171C_YF]")
0
>>> discrete_label("NVPILYTASQA [CTNNA1_Y222]")
0

---

Documented SH2 binding enrichment across a set of sequences
Molecular target: Grb2 SH2 (UniProt P62993)
Sequence (P62993 whole entry, looked up): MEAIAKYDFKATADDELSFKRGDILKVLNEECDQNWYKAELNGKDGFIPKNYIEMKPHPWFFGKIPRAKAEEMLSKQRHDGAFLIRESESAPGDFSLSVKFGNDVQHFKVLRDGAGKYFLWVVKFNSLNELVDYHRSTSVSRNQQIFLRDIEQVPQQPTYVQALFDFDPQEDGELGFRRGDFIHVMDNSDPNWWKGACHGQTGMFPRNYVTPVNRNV
Test: SH2 binding enrichment of the phosphorylated peptide, bacterial display (enrichment ratio); higher = better substrate or ligand; peptides without Tyr show the background
metric: SH2 binding enrichment

>>> readout_number("RMSQRYRDVLQ [CYP1A2_Y72_G73R]")
0.719
>>> readout_number("LARDMHDKEYY [MET_Y1230_Y1230H]")
0.625
>>> readout_number("LIGTPYWMAPE [PAK5_Y608_V604I]")
1.23
>>> readout_number("HEKRAYICAHP [ACAD9_Y611_L606H]")
0.96
>>> readout_number("RGDTVYTVNCM [KBTBD13_Y404_R408C]")
0.752
>>> readout_number("PDMHSYMVRYN [GRIN2D_Y732]")
0.858
>>> readout_number("TFHNTYHSHMR [IL1RAPL1_Y615_Q618H]")
1.09
>>> readout_number("LIQRNYKLTAQ [ALPK2_Y1975_A1978T]")
1.24
>>> readout_number("QGLMPYGQPRP [SRRT_Y798]")
0.955
>>> readout_number("CTTIHYNFMCS [TP53_Y234_N239S_YF]")
1.79
>>> readout_number("CEHRGCLYLAI [TEK_Y897_Y897C]")
0.811
>>> readout_number("ENAGFYFRISA")
0.729
>>> readout_number("LLINKYGLSAH [SCP2_Y151]")
0.869
>>> readout_number("KATKGYLDDPT [G6PD_Y322_E317K]")
0.888
>>> readout_number("YRNKPYISWPS [CDC42BPB_Y1638_S1633Y]")
1.87
>>> readout_number("VGEGPYLISDL [ABCC12_Y7]")
0.786
>>> readout_number("AKRKNYAPVTM [CFAP47_Y557_A561T]")
1.03
>>> readout_number("MHDSNSVSKGS [PDGFRA_Y849_Y849S]")
0.787
>>> readout_number("CVAARYMDVKG [WFIKKN2_Y93]")
0.784
>>> readout_number("KKFPDYIQSAM [SGMS2_Y59_I62S_YF]")
0.821
>>> readout_number("KKGIVYVFNGR [ITGAV_Y404_I405V]")
2.05
>>> readout_number("GRSTFYWPRPR [GAGE12J_Y10_YF]")
0.844
>>> readout_number("LADKPYTFEDF [FXN_Y118_YF]")
1.1
>>> readout_number("SKQGKYLNWDA [ATM_Y54]")
6.01
>>> readout_number("KSAAIYNPVIF [RHO_Y301_YF]")
0.721
>>> readout_number("KLGDVYVNDAF [PGK1_Y161]")
2.38
>>> readout_number("SLQSEYVHFGG [CDC14A_Y591_YF]")
0.899
>>> readout_number("CTTIHYNFMCT [TP53_Y234_N239T_YF]")
2.04
>>> readout_number("HAVEDYQAIVD [CCT7_Y263_T259A]")
1.09
>>> readout_number("CTTIFYNFMCN [TP53_Y234_H233Y_YF]")
2.09
>>> readout_number("PLLEYYWDIFT [CDAN1_Y713_R714W]")
1.25
>>> readout_number("SRVTQYERNFE [SNX1_Y463_D466N]")
0.845
>>> readout_number("KDHPDYEYQPR [SOX9_Y172_K173E]")
1.19
>>> readout_number("PLDGEHFTLQI [TP53_Y327_Y327H]")
0.644
>>> readout_number("NQLNDYIFSFD [RARS1_Y516_R512Q]")
0.928
>>> readout_number("GHEFIYVDPMQ [PDGFRA_Y574_YF]")
0.821
>>> readout_number("PSSRDYKDNIK [PIGN_Y227_H229D]")
1.16
>>> readout_number("RPFRPYIIRGM [LRP5_Y1531_YF]")
0.735
>>> readout_number("MSPPGYKLVNG [GJA1_Y286_T290N]")
0.837
>>> readout_number("MFNPYYGLFEY [NEDD4L_Y680]")
1.56
>>> readout_number("KAIMTYVSSFY [ACTN4_Y260]")
0.86
>>> readout_number("SVVVPYQPPEV [TP53_Y220_E221Q]")
0.969
>>> readout_number("KQRKEYMHRWQ [IQGAP2_Y710_R714W]")
2.29
>>> readout_number("VFDHIYTTQSD [RET_Y928_L923V]")
0.902
>>> readout_number("QFQEKYKQMEQ [HCN4_Y531_V534M_YF]")
0.844
>>> readout_number("SEKISYVFMKR [SSX7_Y48_L43S_YF]")
0.681
>>> readout_number("RENGPYYTSYP [GDAP2_Y487]")
1.09
>>> readout_number("SGPRRYTIAAL [TTR_Y125]")
0.867
>>> readout_number("IVRSLYEDQED [VHL_Y185_L188Q]")
0.985
>>> readout_number("SHGQDYLAGNK [GSTA2_Y147_V149A]")
1.11
>>> readout_number("CTTVHYNYMCN [TP53_Y234_I232V]")
1.08
>>> readout_number("FQKNIYSEEPR [LMNA_Y211_L215P]")
0.809
>>> readout_number("AVSEGYKDFRA [CDA_Y79]")
0.687
>>> readout_number("VDGFVYKLHPS [GCK_Y413_S411F]")
0.693
>>> readout_number("FKIFLYTLNDN [FN1_Y1975_YF]")
0.741
>>> readout_number("DSFATYFRRVL [H2BW1_Y84]")
0.797
>>> readout_number("VPTSKYRGGGG [HBA1_Y141_L137P]")
0.929
